Assign MBC to each entry below.
Tested on: Staphylococcus epidermidis
Experiment: Bactericidal activity against methicillin-resistant Staphylococcus epidermidis isolate 459/11 after 24 hrs
Format: functional
Conditions: isolate 459/11, 24 h, read-out: MBC99.9

**Query** Quote MBC reported for "CCCCN(CCCC)C(=O)[C@H](CC)[C@H]1CC[C@H](C)[C@H]([C@@H](C)[C@H](O)[C@H](C)C(=O)[C@H](CC)[C@H]2O[C@]3(C=C[C@@H](O)[C@]4(CC[C@@](C)([C@H]5CC[C@](O)(CC)[C@H](C)O5)O4)O3)[C@H](C)C[C@@H]2C)O1" please.
**Result** 256 µg/mL

**Query** Quote MBC reported for "CCCCCCCCN(CCCCCCCC)C(=O)[C@H](CC)[C@H]1CC[C@H](C)[C@H]([C@@H](C)[C@H](O)[C@H](C)C(=O)[C@H](CC)[C@H]2O[C@]3(C=C[C@@H](O)[C@]4(CC[C@@](C)([C@H]5CC[C@](O)(CC)[C@H](C)O5)O4)O3)[C@H](C)C[C@@H]2C)O1" please.
**Result** > 256 µg/mL

**Query** Quote MBC reported for "CC[C@@H](C(=O)[C@@H](C)[C@@H](O)[C@H](C)[C@@H]1O[C@@H]([C@@H](CC)C(=O)N(CCOC)CCOC)CC[C@@H]1C)[C@H]1O[C@]2(C=C[C@@H](O)[C@]3(CC[C@@](C)([C@H]4CC[C@](O)(CC)[C@H](C)O4)O3)O2)[C@H](C)C[C@@H]1C" please.
**Result** > 256 µg/mL

**Query** Quote MBC reported for "CC[C@@H](C(=O)[C@@H](C)[C@@H](O)[C@H](C)[C@@H]1O[C@@H]([C@@H](CC)C(=O)N2CCNCC2)CC[C@@H]1C)[C@H]1O[C@]2(C=C[C@@H](O)[C@]3(CC[C@@](C)([C@H]4CC[C@](O)(CC)[C@H](C)O4)O3)O2)[C@H](C)C[C@@H]1C" please.
**Result** > 256 µg/mL
